# Tested on: SNB-19 CNS
# Protocol Text: NCI tumour cell line growth inhibition, 48 h
Measure: GI50

Observe how each entry below is paired with its result.
1) O=C(CI)NC1Oc2ccccc2-c2oc(=O)c(-c3ccccc3)cc21 (stereo not given)    2.64 µM
2) CCOC(=O)/C=C(/C(=O)OCC)n1cc(Cl)c(=O)n(CC(=O)OCC)c1=O    32.7 µM
3) O=C(Nc1ccc(N2CCNCC2)cc1)c1[nH]ncc1Nc1cc(Oc2ccccc2)ncn1    3.19 µM
4) Cn1cc(-c2cnc3ccc(NC(=O)Nc4ccc(F)c(Br)c4)cc3n2)cn1    2.66 µM

In the following, a different compound is considered.
## Task Under SNB-19 CNS: GI50 value of Cc1cc(I)cc(CNCCCN2CCSCC2)c1O ?
## Result 18.4 µM

* * *

Here the recorded TGI is given for each entry.
# System: MDA-N
# Protocol Text: NCI tumour cell line growth inhibition, 48 h

1) O=C1/C(=C/c2ccccc2)N=C(c2ccccc2)N1n1c(-c2ccccc2)nc2ccccc2c1=O    > 100 µM

## Task Under MDA-N: TGI value of Cc1c(F)c(N)c2c(=O)cc(-c3ccc(NC(=O)CN(C)C)c(F)c3)oc2c1F ?
## Result > 100 µM

## Task Under MDA-N: TGI value of O=C(CCCCCCCCC(=O)NN1C(=O)/C(=C\c2ccc(O)c(O)c2)SC1c1ccc(Cl)cc1)NN1C(=O)/C(=C\c2ccc(O)c(O)c2)SC1c1ccc(Cl)cc1 (centres undefined) ?
## Result > 100 µM

## Task Under MDA-N: TGI value of Cc1ccc([C@@H]2[C@@H](C(=O)c3ccccn3)[C@H](c3ccc(C)cc3)C[C@](O)(c3ccccn3)[C@H]2C(=O)c2ccccn2)cc1 ?
## Result > 28.5 µM

* * *

# Test system: SF-268 CNS
# Protocol Text: NCI tumour cell line growth inhibition, 48 h
Measure: TGI

1. COc1cccc(-c2cc(=O)c3ccccc3o2)c1N    > 100 µM
2. O=C1/C(=C/c2ccccc2)N=C(c2ccccc2)N1n1c(-c2ccccc2)nc2ccccc2c1=O    > 100 µM
3. CN(C)CCNc1cc(-c2ccccc2)nc2ccccc12    22.7 µM
4. CCCCN(CCCC)C(=O)C(=O)C(C#N)c1ccc(C)cc1 (stereo unspecified)    > 100 µM
5. O=c1[nH]n2c(=O)cc[nH]c2c1-c1nnns1    > 100 µM

## Task Under SF-268 CNS: TGI value of O=C(/C=C/c1ccc(O)c([N+](=O)[O-])c1)CC(=O)/C=C/c1ccc(O)c([N+](=O)[O-])c1 ?
## Result > 100 µM

## Task Under SF-268 CNS: TGI value of N#C/C(=C/c1ccsc1)C(=O)c1ccccc1 ?
## Result > 100 µM

## Task Under SF-268 CNS: TGI value of COc1ccc(OC)c(NC(=O)C(=O)C(C(C)=O)c2nc3ccc(Cl)cc3[nH]c2=O)c1 (stereo unspecified) ?
## Result > 50 µM

* * *

# Test system: MDA-MB-435
# Protocol Text: NCI tumour cell line growth inhibition, 48 h
Measure: TGI

Observe how each entry below is paired with its result.
1) CC(C)=CCOC(=O)C(C)=[N+]=[N-]    > 100 µM
2) O=C(O)CSc1nnc(COc2ccc(Cl)cc2)n1-c1ccccc1    > 100 µM
3) Cc1nc2cccc([N+](=O)[O-])c2c(NCCCN(C)C)c1C    > 100 µM
4) O=C(Nc1ccc(Br)cc1)c1c(-c2ccccc2)c2ccc(O)cc2oc1=O    > 10 µM
5) CC(CN1c2ccccc2Sc2ccccc21)N(C)C (stereo unspecified)    31.2 µM

## Task Which TGI is reported for this compound? CCOc1cccc(/C=N/NC(=O)c2ccccc2Nc2ccnc(C(F)(F)F)c2)c1O
## Result 77.4 µM
